assay: Waters ACQUITY UPLC BEH C18, 100 × 2.1 mm, 1.7 µm, 40 °C, 0.3 to 0.4 mL/min, estimated dead time 0.63 min; A: water + 0.1% formic acid; B: methanol + 0.1% formic acid; gradient (min/%B) 0/0.5 0.1/0.5 10/80 10.1/99.5 12/99.5; details: stereoisomer not certain
For each record, write down the corresponding LC retention time.
Kindly provide the numeric value in min only, without the unit symbol.

Recorded LC retention time of O=C(O)CC1CCC(=O)C1CC=CCCO (stereo not drawn) , please.
3.39

// lookup LC retention time for CN1C2CCC1CC(OC(=O)C(CO)c1ccccc1)C2 (stereo not drawn)
3.59

I have this molecule here, CC1CCC2(OC1O)OC1CC3C4CC=C5CC(OC6OC(CO)C(OC7OC(C)C(O)C(O)C7O)C(O)C6OC6OC(C)C(O)C(O)C6O)CCC5(C)C4CCC3(C)C1C2C (stereo not drawn) , and I need its recorded LC retention time.
5.71

Entry under review: COC1OC2c3cc4c(cc3CCN(C)C2c2ccc3c(c21)OCO3)OCO4 (stereo not drawn) . Reported LC retention time?
4.65

# input molecule: COc1cc(C(C)=O)cc(OC)c1O ; wanted: its LC retention time
4.31

# LC retention time lookup, item CC1OC(OCC2OC(Oc3cc4c(O)cc(O)cc4[o+]c3-c3ccc(O)c(O)c3)C(OC3OC(CO)C(O)C(O)C3O)C(O)C2O)C(O)C(O)C1O (stereo not drawn)
2.75

Any idea what LC retention time was measured for CC=C1CN2C3CC1C1COC(c4c3[nH]c3cc(OC)ccc43)C12 (stereo not drawn) ?
4.42

Look at this molecule and give its reported LC retention time. CN1CCCCC1c1ccc(-c2cccnc2)nc1 (stereo not drawn)
2.37

Name the recorded LC retention time for COc1ccc(C2CC(=O)c3c(O)cc(OC4OC(COC5OC(C)C(O)C(O)C5O)C(O)C(O)C4O)cc3O2)cc1O (stereo not drawn) .
4.51

State the recorded LC retention time for this entry: CCCCCC=CCC=CCCCCCCCC(=O)OCC(O)COP(=O)([O-])OCC[N+](C)(C)C (stereo not drawn)
9.31

Query: LC retention time; subject: CC(C)=CCCC(C)(O)C1CCC2(C)C1C(O)CC1C3(C)CCC(O)C(C)(C)C3C(OC3OC(CO)C(O)C(O)C3O)CC12C (stereo not drawn)
6.29

Entry CC(CCC1(O)OC2CC3C4CCC5(O)CC(OC6OC(CO)C(O)C(O)C6O)C(O)CC5(C)C4CCC3(C)C2C1C)COC1OC(CO)C(O)C(O)C1O (stereo not drawn) has what LC retention time?
4.69

What measured LC retention time goes with CC=C1CN2C3CC1C(CO)C2Cc1c3[nH]c2ccccc12 (stereo not drawn) ?
3.58

----------
assay: Waters ACQUITY UPLC BEH C18, 100 × 2.1 mm, 1.7 µm, 40 °C, 0.3 to 0.4 mL/min, estimated dead time 0.63 min; A: water + 0.1% formic acid; B: methanol + 0.1% formic acid; gradient (min/%B) 0/0.5 0.1/0.5 10/80 10.1/99.5 12/99.5; details: stereoisomer not certain
property: LC retention time (min)
Use min as the unit, but write only the number.

Suppose we examine the compound CS(=O)CCCCCCCC(N)C(=O)O (configuration not stated) ; what LC retention time value has been reported?
2.28

Recorded LC retention time for CCN1CC2(COC)C(OC(C)=O)CC(OC)C34C5CC6(O)C(OC)C(O)C(OC(C)=O)(C5C6OC(=O)c5ccccc5)C(C(OC)C23)C14 (configuration not stated) , please?
6.17

Requested field: LC retention time. Item: OCC1OC(OCC2OC(O)(CO)C(O)C2O)C(O)C(O)C1O (configuration not stated)
1.74

// query LC retention time value for entry CC1OC(OCC2OC(Oc3c(-c4ccc(O)c(O)c4)oc4cc(OC5OC(CO)C(O)C(O)C5O)cc(O)c4c3=O)C(O)C(O)C2O)C(O)C(O)C1O (configuration not stated)
3.39

Requested field: LC retention time. Item: O=c1c(-c2ccc(O)cc2)coc2cc(OC3OC(CO)C(O)C(O)C3O)ccc12 (configuration not stated)
3.65

Recorded LC retention time for C=CC1C(OC2OC(CO)C(O)C(O)C2O)OC=C(C(=O)O)C1Cc1nccc2c1[nH]c1ccc(O)cc12 (configuration not stated) , please?
3.69

Param item = CC1CCC2(C(=O)OC3OC(COC4OC(CO)C(OC5OC(C)C(O)C(O)C5O)C(O)C4O)C(O)C(O)C3O)CCC3(C)C(=CCC4C5(C)CC(O)C(O)C(C)(CO)C5CCC43C)C2C1C (configuration not stated) ; retrieve measured LC retention time.
5.21

----------
experiment: Waters ACQUITY UPLC BEH C18, 100 × 2.1 mm, 1.7 µm, 40 °C, 0.3 to 0.4 mL/min, estimated dead time 0.63 min; A: water + 0.1% formic acid; B: methanol + 0.1% formic acid; gradient (min/%B) 0/0.5 0.1/0.5 10/80 10.1/99.5 12/99.5; conditions: stereoisomer not certain
Assignment: determine reported LC retention time for the given compounds.
Your answer is read as min, so omit the unit and give the number.

Data request, read-out LC retention time, for COc1cc(C=CC(=O)NCCCCN=C(N)N)ccc1O
3.22

I have this compound here, O=C(O)C1OC(OC2C(Oc3cc(O)c4c(=O)cc(-c5ccc(O)cc5)oc4c3)OC(C(=O)O)C(O)C2O)C(O)C(O)C1O (centres undefined) , and I need its recorded LC retention time.
4.05

Entry under review: COc1ccc(C=Cc2cc(OC)cc(OC)c2)cc1 . Reported LC retention time?
9.6

Param item = CC(=O)OCC1OC(Oc2c(-c3ccc(O)c(O)c3)oc3cc(O)cc(O)c3c2=O)C(O)C(O)C1O (centres undefined) ; retrieve measured LC retention time.
4.42

# query: LC retention time of entry O=C(C=Cc1ccc(O)c(O)c1)OC1CC(OC(=O)C=Cc2ccc(O)c(O)c2)(C(=O)O)CC(O)C1O (centres undefined)
3.49

Name the recorded LC retention time for Nc1ncnc2c1ncn2C1CC(O)C(CO)O1 (centres undefined) .
1.93

What measured LC retention time goes with CCCCC(=O)OC1C(CO)OC(OC2(CO)OC(CO)C(OC(C)=O)C2O)C(OC(=O)CCC)C1OC(=O)CCCC (centres undefined) ?
8.04

May I ask what LC retention time has been recorded for COCC12CN(C)C3C4C(OC)C1C3(C(OC)CC2O)C1CC2(O)C(OC)C(O)C4(OC(C)=O)C1C2OC(=O)c1ccccc1 (centres undefined) ?
5.61

Would you mind telling me what LC retention time value was observed for CC1CCC2C(C)C3C(CC4C5CC=C6CC(OC7OC(CO)C(O)C(OC8OC(CO)C(O)C(O)C8O)C7O)CCC6(C)C5CCC43C)N2C1 (centres undefined) ?
4.65

Looking for the measured LC retention time of COc1cc(C(=O)OC2CC3CCC(C2)N3)ccc1O (centres undefined) , can you help?
3.27

Looking for the measured LC retention time of O=c1cc(-c2ccc(O)cc2)oc2c(C3OCC(O)C(O)C3O)c(O)c(C3OCC(O)C(O)C3O)c(O)c12 (centres undefined) , can you help?
3.89

Which measured LC retention time value corresponds to CC1OC(OC2C(c3c(O)cc4oc(-c5ccc(O)c(O)c5)cc(=O)c4c3O)OC(CO)C(O)C2O)C(O)C(O)C1O (centres undefined) ?
4.48

Can you look up the measured LC retention time of O=C(C=Cc1ccc(O)cc1)OCC1OC(OC2C(c3c(O)cc4oc(-c5ccc(O)cc5)cc(=O)c4c3O)OC(CO)C(O)C2O)C(O)C(O)C1O (centres undefined) for me?
4.21

Please give the measured LC retention time for this compound: O=C(Cc1c[nH]c2ccccc12)NC(Cc1c[nH]c2ccccc12)C(=O)O (centres undefined)
6.19

For COC1=CC2C3Cc4ccc(OC)c(O)c4C2(CCN3C)CC1=O (centres undefined) , what is its reported LC retention time?
3.03

Please look up its LC retention time: COc1cc(C2c3cc4c(cc3C(OC3OC5COC(C)OC5C(O)C3O)C3COC(=O)C23)OCO4)cc(OC)c1O (centres undefined)
5.4

Look up LC retention time for this compound: CC=CSSC=CC
6.41

Please look up its LC retention time: CC1CCC2C(C)C3C(CC4C5CC=C6CC(OC7OC(CO)C(O)C(OC8OC(CO)C(O)C(O)C8O)C7OC7OC(C)C(O)C(O)C7O)CCC6(C)C5CCC43C)N2C1 (centres undefined)
4.95

Which measured LC retention time value corresponds to NCCc1c[nH]c2ccccc12 ?
1.79

I would be grateful if you could share the reported LC retention time for COc1ccc(-c2cc(=O)c3c(O)cc(OC4OC(CO)C(O)C(O)C4OC4OC(C)C(O)C(O)C4O)cc3o2)cc1 (centres undefined) .
5.26

Name the recorded LC retention time for COc1cc(C=CC=O)ccc1O .
4.76

I have this compound here, O=C(O)c1cc2c(c3c1c([N+](=O)[O-])cc1ccc(O)cc13)OCO2 , and I need its recorded LC retention time.
5.96

Tell me the measured LC retention time of COc1ccc2c(c1O)-c1c(OC)c(OC)cc3c1C(C2)N(C)CC3 (centres undefined) , please.
3.92

Returns the measured LC retention time for the input compound. Input: CCC1(O)C(=O)OCc2c1cc1n(c2=O)Cc2cc3ccccc3nc2-1 (centres undefined)
5.4

Hello, the source for this data is the RepoRT retention time repository, in case you need it.
